# conditionDescription: in acetonitrile, 288.15 K
observedProperty: solubility (mole fraction)

Return reported solubility (mole fraction); argument: Brc1cnc2[nH]ccc2c1
0.00366

###

# conditionDescription: in methanol, 288.15 K
observedProperty: solubility (mole fraction)
Write the number on its own, no unit after it.

Return reported solubility (mole fraction); argument: Brc1cnc2[nH]ccc2c1
0.00779

###

# conditionDescription: in isopropanol, 313.15 K
observedProperty: solubility (mole fraction)
Write the number on its own, no unit after it.

Return reported solubility (mole fraction); argument: Brc1cnc2[nH]ccc2c1
0.0217

###

# conditionDescription: in isopropanol, 318.15 K
observedProperty: solubility (mole fraction)

Return reported solubility (mole fraction); argument: Brc1cnc2[nH]ccc2c1
0.0252

###

# conditionDescription: in n-butanol, 308.15 K
observedProperty: solubility (mole fraction)
Write the number on its own, no unit after it.

Return reported solubility (mole fraction); argument: Brc1cnc2[nH]ccc2c1
0.0312

###

# conditionDescription: in ethanol, 288.15 K
observedProperty: solubility (mole fraction)
Write the number on its own, no unit after it.

Return reported solubility (mole fraction); argument: Brc1cnc2[nH]ccc2c1
0.0106

###

# conditionDescription: in n-butanol, 298.15 K
observedProperty: solubility (mole fraction)
Write the number on its own, no unit after it.

Return reported solubility (mole fraction); argument: Brc1cnc2[nH]ccc2c1
0.0251

###

# conditionDescription: in ethanol, 283.15 K
observedProperty: solubility (mole fraction)
Write the number on its own, no unit after it.

Return reported solubility (mole fraction); argument: Brc1cnc2[nH]ccc2c1
0.00958

###

# conditionDescription: in ethyl acetate, 293.15 K
observedProperty: solubility (mole fraction)
Write the number on its own, no unit after it.

Return reported solubility (mole fraction); argument: Brc1cnc2[nH]ccc2c1
0.0225

###

# conditionDescription: in methanol, 308.15 K
observedProperty: solubility (mole fraction)
Write the number on its own, no unit after it.

Return reported solubility (mole fraction); argument: Brc1cnc2[nH]ccc2c1
0.0124

###

# conditionDescription: in n-propanol, 308.15 K
observedProperty: solubility (mole fraction)

Return reported solubility (mole fraction); argument: Brc1cnc2[nH]ccc2c1
0.0209

###

# conditionDescription: in ethanol, 318.15 K
observedProperty: solubility (mole fraction)
Write the number on its own, no unit after it.

Return reported solubility (mole fraction); argument: Brc1cnc2[nH]ccc2c1
0.0222

###

# conditionDescription: in ethyl acetate, 323.15 K
observedProperty: solubility (mole fraction)
Write the number on its own, no unit after it.

Return reported solubility (mole fraction); argument: Brc1cnc2[nH]ccc2c1
0.045

###

# conditionDescription: in n-hexane, 283.15 K
observedProperty: solubility (mole fraction)
Write the number on its own, no unit after it.

Return reported solubility (mole fraction); argument: Brc1cnc2[nH]ccc2c1
0.00017

###

# conditionDescription: in dichloromethane, 288.15 K
observedProperty: solubility (mole fraction)

Return reported solubility (mole fraction); argument: Brc1cnc2[nH]ccc2c1
0.00216
